test: small-molecule microarray binders of probe aXIP, primary screen, biochemical, NeuroSMM set, 635/667 nm fluorescence (AID 1119); details: higher = more signal, called active from +8 up or from −8 down;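 further: probe is the protein aXip251-270 applied at 1 µg/mL to compound-printed slides; binding of probe to printed compounds measured as 667 nm fluorescence plus signal to noise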
For each record, write down the corresponding composite Z-score.
Field format: numeric only.

Task: Could you tell me which composite Z-score is on file for C=C(CCCC)C(=O)CC[C@H](OC(=O)c1cccnc1)c1cccc(OCCO)c1 ?
Result: 0.087

Task: Could you tell me which composite Z-score is on file for [N-]=[N+]=Nc1ccccc1[C@H]1OC(c2ccc(OCCCO)cc2)=N[C@@]1(CCS(=O)(=O)c1ccccc1)C(=O)O ?
Result: 0.254

Task: Could you tell me which composite Z-score is on file for O=C1N(CCS(=O)(=O)c2ccccc2)Cc2ccccc2C[C@]12N=C(c1ccc(OCCCO)cc1)O[C@@H]2c1ccccc1 ?
Result: 0.339

Task: Could you tell me which composite Z-score is on file for O=C1OCCC=C[C@H]2OC34C=CCN(Cc5ccccc5)C(=O)[C@H]3N(CCCCCO)C(=O)[C@@H]4C12 (some centres undefined) ?
Result: 0.452

Task: Could you tell me which composite Z-score is on file for C=C(C(=O)CC[C@H](OC(C)=O)c1ccc(OCCO)cc1)C(C)C ?
Result: 0.277

Task: Could you tell me which composite Z-score is on file for O=C1O[C@@H](c2ccccc2)[C@@H](c2ccccc2)N2[C@@H](c3ccc(O)cc3)[C@]3(C(=O)Nc4ccc(C#CC5(O)CCCCCC5)cc43)[C@@H](C(=O)N3CCCCCCC3)[C@H]12 ?
Result: 6.76

Task: Could you tell me which composite Z-score is on file for CO[C@H]1O[C@H](CO)[C@@H](OC(=O)Nc2ccc3c(c2)OCO3)[C@H](OC(=O)Nc2ccccc2)[C@H]1OC(=O)Nc1ccccc1 ?
Result: 0.118

Task: Could you tell me which composite Z-score is on file for COCCOC(=O)N1C(=O)[C@@]2(c3cc(C#Cc4ccc(OC)cc4)ccc31)[C@H](C(=O)N1CCN(c3ncccn3)CC1)[C@H]1C(=O)O[C@H](c3ccccc3)[C@H](c3ccccc3)N1[C@@H]2c1ccc(O)cc1 ?
Result: 0.0527

Task: Could you tell me which composite Z-score is on file for COCCOC(=O)N1C(=O)[C@@]2(c3ccccc31)[C@H](C(=O)NC[C@H](O)c1ccccc1)[C@H]1C(=O)O[C@H](c3ccccc3)[C@H](c3ccccc3)N1[C@@H]2c1ccc(OCCO)cc1 ?
Result: -0.404

src = PubChem BioAssay
